Data provenance is ChEMBL document CHEMBL1130835.

Target: Caspase-1 (Homo sapiens, UniProt P29466)
Sequence (P29466 whole entry): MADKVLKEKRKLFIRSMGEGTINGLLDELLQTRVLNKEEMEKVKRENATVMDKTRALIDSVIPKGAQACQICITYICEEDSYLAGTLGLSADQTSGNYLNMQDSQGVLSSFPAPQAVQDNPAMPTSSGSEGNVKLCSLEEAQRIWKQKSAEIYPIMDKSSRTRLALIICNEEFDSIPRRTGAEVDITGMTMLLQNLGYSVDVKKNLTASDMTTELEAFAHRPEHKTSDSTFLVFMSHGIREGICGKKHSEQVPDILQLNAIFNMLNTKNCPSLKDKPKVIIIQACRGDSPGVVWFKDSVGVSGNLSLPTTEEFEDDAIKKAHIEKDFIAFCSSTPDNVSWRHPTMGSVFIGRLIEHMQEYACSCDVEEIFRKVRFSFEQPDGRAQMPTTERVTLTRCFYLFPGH
Experiment: Ability to inhibit IL-1 beta converting enzyme was evaluated in LPS-stimulated human whole blood
Type: tissue-based
quantity.kind: pIC50
Bear in mind: pIC50 is minus log10 of a mol/L concentration; give just that figure.

| smiles.data | pIC50 |
| --- | --- |
| CC(=O)N[C@@H](Cc1ccc(O)cc1)C(=O)N[C@H](C(=O)N[C@@H](C)C(=O)N[C@H](CC=O)CC(=O)O)C(C)C | 5.54 |

Now look at this one.
Missing value: pIC50, Caspase-1 (Homo sapiens, UniProt P29466), entry `CC(=O)N[C@@H](Cc1ccc(O)cc1)C(=O)N[C@H](C(=O)N[C@@H](C)C(=O)N[C@H](C=O)CC(=O)O)C(C)C` . Fill in?
5.70

###

Target: Papain (Carica papaya)
Sequence (P00784 whole entry): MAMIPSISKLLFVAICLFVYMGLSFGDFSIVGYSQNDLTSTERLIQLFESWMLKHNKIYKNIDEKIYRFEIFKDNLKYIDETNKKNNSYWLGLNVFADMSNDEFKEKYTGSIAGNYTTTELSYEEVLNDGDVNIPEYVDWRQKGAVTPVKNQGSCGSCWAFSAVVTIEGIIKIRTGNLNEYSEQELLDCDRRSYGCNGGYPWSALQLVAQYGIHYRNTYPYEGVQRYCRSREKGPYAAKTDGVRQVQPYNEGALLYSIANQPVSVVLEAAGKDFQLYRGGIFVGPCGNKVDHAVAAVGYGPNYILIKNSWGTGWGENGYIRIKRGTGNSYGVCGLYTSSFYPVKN
Test: Ability to inhibit papain was evaluated by amidolytic method using fluorogenic or chromogenic substrates
# maps each entry to its IC50
Please respond with the number in µM and leave the unit unwritten.

Record excerpt, results attached:
| smiles.data | IC50, µM |
| --- | --- |
| CC(C)COC(=O)N[C@@H](Cc1ccccc1)C(=O)N[C@H](CC=O)CCCNC(=N)N | 105 |
| CC[C@H](C)[C@H](NC(=O)[C@H](CCCN=C(N)N)NC(=O)OCc1ccccc1)C(=O)N[C@@H](C=O)Cc1ccccc1 | 8.5 |

Now look at this one.
Request the reported IC50 associated with `CC[C@H](C)[C@H](NC(=O)[C@H](CCCN=C(N)N)NC(=O)OCc1ccccc1)C(=O)N[C@H](CC=O)Cc1ccccc1`
65

###

# maps each entry to its IC50
Target: Caspase-1 (Homo sapiens)
Assay: Amidolytic activity of THP.1 cell lysate against IL-1 beta converting enzyme using C1-Asp-AMC as a substrate
Type: cell-based
Please respond with the number in µM and leave the unit unwritten.

Record excerpt, results attached:
| smiles.data | measurement.unit | reading |
| --- | --- | --- |
| CC(=O)N[C@@H](Cc1ccc(O)cc1)C(=O)N[C@H](C(=O)N[C@@H](C)C(=O)N[C@H](C=O)CC(=O)O)C(C)C | µM | 68 |
| CC(=O)N[C@@H](CC(=O)O)C(=O)N[C@@H](CCC(=O)O)C(=O)N[C@H](C(=O)N[C@H](CC=O)CC(=O)O)C(C)C | µM | 0.0223 |
| CC(=O)N[C@@H](CC(=O)O)C(=O)N[C@@H](CCC(=O)O)C(=O)N[C@H](C(=O)N[C@H](C=O)CC(=O)O)C(C)C | µM | 70 |

Now look at this one.
Request the reported IC50 associated with `CC(=O)N[C@@H](Cc1ccc(O)cc1)C(=O)N[C@H](C(=O)N[C@@H](C)C(=O)N[C@H](CC=O)CC(=O)O)C(C)C`
142
